Provenance of the data: paper PMC5540273

Test system: CLK2
test conditions: concentration: 1 μM, replicates: in singlicate; n = 1;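 further: KINOMEscan kinase panel screen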
A collection of molecules and their measured %Inh
value type: %Inh (%)

>>> numeric_value("COCCNC(=O)c1ccc(-c2cc(C(=O)NC3CC3)cc(F)c2C)cc1")
24
>>> numeric_value("N#Cc1ccc(-c2cc(-c3c[nH]nc3-c3ccccn3)ccn2)cc1")
8
>>> numeric_value("[2H]C([2H])(c1cccc(C(F)(F)F)c1C)n1ccn2c(=O)nc(N3CCOCC3)cc12")
0
>>> numeric_value("O=c1cc(N2CCOCC2)nc2n(Cc3cccc(F)c3)ccn12")
0
>>> numeric_value("O=C(NCCCN1CCOCC1)c1cccc(Nc2nccc(Nc3ccc(Oc4ccccc4)cc3)n2)c1")
28
>>> numeric_value("O=C(c1ccc(-c2cc(-c3c[nH]nc3-c3ccccn3)ccn2)cc1)N1CCOCC1")
0
>>> numeric_value("CC(C)(C)n1cnc2c(N)ncnc21")
0
>>> numeric_value("COc1ccc(Nc2ncc(C#N)c(Nc3ccccc3C(N)=O)n2)cc1N1CCN(C)CC1.Cl")
99.3
>>> numeric_value("Cc1cn2c(=O)cc(N3CCOCC3)nc2n1Cc1cccc(Cl)c1Cl")
0
>>> numeric_value("CN(C1=C(c2ccccc2)C(=O)NC1=O)c1ccccc1")
12
>>> numeric_value("O=C(NCCNc1ccnc(Nc2ccc(F)cc2)n1)c1cc2ccccc2s1")
0
>>> numeric_value("Cl.Oc1cccc(Nc2ccnc3cc(-c4ccncc4)ccc23)c1")
0
>>> numeric_value("COc1cc(Nc2nccc(N3CCC(NC(=O)c4cccc(NC(C)=O)c4)C3)n2)cc(OC)c1OC (stereo not drawn)")
3
>>> numeric_value("O=C(Nc1n[nH]c2cc(-c3cccc(F)c3)ccc12)C1CC1")
9
>>> numeric_value("O=C1Cc2cc(Nc3nc(NCc4cccc(S(=O)(=O)C(F)(F)F)c4)ncc3C(F)(F)F)ccc2N1")
0
>>> numeric_value("CSc1ccc(-c2cc3ncnc(SCC(=O)O)c3s2)cc1")
0
>>> numeric_value("O=c1cc(N2CCOCC2)nc2n(Cc3cccc4ccccc34)ccn12")
3
>>> numeric_value("COc1ccc(S(=O)(=O)NC2CCN(c3cc(C)nc(Nc4cccc(C#N)c4)n3)CC2)cc1.O=C(O)C(F)(F)F")
0

====

A collection of compounds and their measured %Inh
System: PRKR
Construct: gene EIF2AK2
test conditions: concentration: 1 μM, replicates: in singlicate; n = 1
value type: %Inh (%)

>>> numeric_value("CN(C(=O)c1ccc(-c2cc(-c3c[nH]nc3-c3ccccn3)ccn2)cc1)C1CCOCC1")
0
>>> numeric_value("Cc1cccc(Cn2ccn3c(=O)cc(N4CCOCC4)nc23)c1")
0
>>> numeric_value("Cc1c2ccc(N(C)c3ccnc(Nc4cccc(S(N)(=O)=O)c4)n3)cc2nn1Cc1ccccc1.Cl.Cl")
0
>>> numeric_value("NS(=O)(=O)CCc1cccc(Nc2nccc(-c3c(-c4cccc(NC(=O)c5c(F)cccc5F)c4)nn4ccccc34)n2)c1")
0
>>> numeric_value("CC(=O)Nc1ccc(COc2ccc(Nc3ccnc4cc(-c5ccccn5)ccc34)cc2)cc1.Cl")
27
>>> numeric_value("O=C(NCCNc1ccnc(Nc2ccc(F)cc2)n1)c1cc2ccccc2s1")
0
>>> numeric_value("COc1cc2c(cc1OCCN1CCN(C)CC1)ncc1c3ccc(C#N)cc3[nH]c21")
30
>>> numeric_value("Cc1nnc(-c2ccc3ncc(-c4ccc(S(C)=O)cc4)n3c2)o1 (stereo not shown)")
0
>>> numeric_value("Fc1ccc(-c2nn3c(OCC(F)(F)F)cccc3c2-c2ccncc2)cc1")
0
>>> numeric_value("CSc1ccc(-c2cc3ncnc(SCC(=O)O)c3s2)cc1")
0
>>> numeric_value("COc1ccc(Nc2nccc(N3CCC(NC(=O)Nc4cc(C)ccc4C)C3)n2)cc1 (stereo not shown)")
0
>>> numeric_value("N#Cc1ccc(-c2cc(-c3c[nH]nc3-c3ccccn3)ccn2)cc1")
0
>>> numeric_value("O=C(Nc1cccc(-c2nn3ncccc3c2-c2ccnc(Nc3cccc(C(F)(F)F)c3)n2)c1)c1c(F)cccc1F")
0
>>> numeric_value("O=C1Cc2cc(Nc3nc(NCc4cccc(S(=O)(=O)C(F)(F)F)c4)ncc3C(F)(F)F)ccc2N1")
0
>>> numeric_value("CCc1nc(-c2cccc(C)c2)c(-c2ccnc(NCc3ccccc3)c2)s1")
0
>>> numeric_value("Cl.Oc1cccc(Nc2ccnc3cc(-c4ccncc4)ccc23)c1")
21
>>> numeric_value("Cn1cc(-c2ccc3c(c2)CCN3C(=O)Cc2ccccc2Cl)c2c(N)ncnc21")
0
>>> numeric_value("CCc1ccnc(/C=C/c2n[nH]c3cc(Sc4ccccc4C(=O)NC)ccc23)c1")
0
>>> numeric_value("O=c1cc(N2CCOCC2)nc2n(Cc3cccc(Cl)c3Cl)c(C3CC3)nn12")
0
>>> numeric_value("CN1c2ccc(NCc3ccc(F)cc3)cc2-c2c(cnn2C)S1(=O)=O")
0
>>> numeric_value("N#Cc1c(N2CCOCC2)sc(-c2ccn[nH]2)c1-c1ccc(Cl)cc1")
0
>>> numeric_value("Cn1ccc2ncnc(Oc3ccc(NC(=O)Nc4ccncc4)c(Cl)c3)c21")
0
>>> numeric_value("COc1ccc(S(=O)(=O)NC2CCN(c3cc(C)nc(Nc4cccc(C#N)c4)n3)CC2)cc1.O=C(O)C(F)(F)F")
1
>>> numeric_value("Cl.Nc1ncnc2occ(-c3ccc(NC(=O)Nc4cc(C(F)(F)F)ccc4F)cc3)c12")
28
>>> numeric_value("CCCCCc1nc2c(N)ncnc2n1CCCCC")
0
>>> numeric_value("O=C(NOCC1CC1)c1ccc(F)c(F)c1Nc1ccc(I)cc1Cl")
0
>>> numeric_value("Cc1c(Cn2c(C)nn3c(=O)cc(N4CCOC(C)C4)nc23)cccc1C(F)(F)F (stereo not shown)")
0
>>> numeric_value("CN(C1=C(c2ccccc2)C(=O)NC1=O)c1ccccc1")
17

====

Tested on: MARK4
test conditions: concentration: 1 μM, replicates: in singlicate; n = 1
A collection of compounds and their measured %Inh
value type: %Inh (%)

>>> numeric_value("O=C(NOCC1CC1)c1ccc(F)c(F)c1Nc1ccc(I)cc1Cl")
0
>>> numeric_value("O=c1cc(N2CCOCC2)nc2n(Cc3cccc(C(F)(F)F)c3)ccn12")
12
>>> numeric_value("NS(=O)(=O)c1cccc(-c2ccc3ncc(N4CCOCC4)nc3c2)c1")
0
>>> numeric_value("Cc1nnc(-c2ccc3ncc(-c4ccc(S(C)=O)cc4)n3c2)o1 (stereo not drawn)")
0
>>> numeric_value("CSc1ccc(-c2cc3ncnc(SCC(=O)O)c3s2)cc1")
0
>>> numeric_value("Cc1ccc(NC(=O)c2ccnc(N3CCN(C)CC3)c2)cc1-c1ccc(C(=O)NCC2CC2)cc1")
41
>>> numeric_value("Cc1nnc(-c2ccc(C)c(-c3ccc(C(=O)Nc4ccc(NS(C)(=O)=O)cc4)cc3)c2)o1")
10
>>> numeric_value("O=C1NC(=O)C(N2CCc3ccccc32)=C1c1cccc(Cl)c1")
0
>>> numeric_value("COCCNC(=O)c1ccc(-c2cc(C(=O)NC3CC3)cc(F)c2C)cc1")
9

====

Tested on: MYLK4
test conditions: concentration: 1 μM, replicates: in singlicate; n = 1
value type: %Inh (%)

>>> numeric_value("COc1cc2c(cc1OC[C@@H](O)CO)ncc1c3ccc(C#N)cc3[nH]c21")
99
>>> numeric_value("[2H]C([2H])(c1cccc(C(F)(F)F)c1C)n1ccn2c(=O)nc(N3CCOCC3)cc12")
0
>>> numeric_value("O=c1cc(N2CCOCC2)nc2n(Cc3cccc(F)c3)ccn12")
0
>>> numeric_value("CCCCCc1nc2c(N)ncnc2n1CCCCC")
12
>>> numeric_value("CCc1ccnc(/C=C/c2n[nH]c3cc(Sc4ccccc4C(=O)NC)ccc23)c1")
0
>>> numeric_value("Cc1cccc(Cn2ccn3c(=O)cc(N4CCOCC4)nc23)c1")
6
>>> numeric_value("O=C1NC(=O)C(N2CCc3ccccc32)=C1c1cccc(Cl)c1")
0
>>> numeric_value("O=C(Nc1cccc(-c2nn3ncccc3c2-c2ccnc(Nc3cccc(C(F)(F)F)c3)n2)c1)c1c(F)cccc1F")
0
>>> numeric_value("Fc1ccc(-c2nn3c(OCC(F)(F)F)cccc3c2-c2ccncc2)cc1")
0

====

Test system: STK39
test conditions: concentration: 1 μM, replicates: in singlicate; n = 1
value type: %Inh (%)

>>> numeric_value("O=C(Nc1n[nH]c2cc(-c3cccc(F)c3)ccc12)C1CC1 [SB-735464]")
0
>>> numeric_value("CCc1nc(-c2cccc(C)c2)c(-c2ccnc(NCc3ccccc3)c2)s1")
0
>>> numeric_value("O=C1NC(=O)C(N2CCc3ccccc32)=C1c1cccc(Cl)c1 [SB-408010]")
54
>>> numeric_value("NCC(NC(=O)c1cc(-c2cn[nH]c2)c(-c2ccnc3[nH]ccc23)s1)c1ccccc1.O=C(O)C(F)(F)F.O=C(O)C(F)(F)F (stereo not shown) [GSK1325775]")
9
